Assay: inhibitors of Toxoplasma growth in IFN-γ-primed HeLa – cell-based, ME49Luc, luciferase, 72 h, dose response (AID 1259418)
Settings: T. gondii ME49Luc in IFN-y HeLa, hits give low values, -100% = high-dose IFN-γ control wells; at 19.5 µM unless noted
Among all 3,400 compounds or so, about 840 (25%) were called active. Not shown: some 11% with an inconclusive outcome. Not all results are given here. Results with a measured potency or affinity are listed apart.
ASSAY ENDPOINT: max activity

Field: example entries. Status: answers known.
* CCc1c(C)sc2c1CCN(Cc1nc(-c3ccc(OC)cc3OC)oc1C)C2c1ccccc1 (centres undefined) | 15.7% (inactive)
* O=C(Cc1cccnc1)N1CC(=O)N2[C@H](CO)[C@@H](c3ccc(/C=C/c4ccccc4)cc3)[C@H]2C1 | 9.82% [at 10 µM] (inactive)
* Cc1cccc(Cn2c(CN3CCC(C(=O)N4CCCC4)CC3)cc3ccccc32)c1 | -9.03% [at 0.35 µM] (inactive)
* O=C(CCC1N=C2c3ccccc3N=C(SCc3cc(=O)n4ccccc4n3)N2C1=O)NCc1ccco1 (centres undefined) | 26.1% [at 1.35 µM] (inactive)
* C=CCN1C(=O)COC2(CCN(Cc3ccc(C)s3)CC2)C1C (centres undefined) | 27.2% (inactive)

Which max activity is listed for Cc1ccc(N2CCN(c3nc(-c4ccc(Cl)cc4)nc4ccccc34)CC2)c(C)c1 ?
25.4% (inactive)

Which max activity is listed for COc1ccc2c(c1)NC1(CCN(C(=O)Cc3ccc(Cl)cc3)CC1)c1cccn1-2 ?
7.11% [at 10 µM] (inactive)

Which max activity is listed for COc1ccc(-c2nc(Nc3cc(OC)c(OC)c(OC)c3)c3ccccc3n2)cc1 ?
-9.87% [at 0.16 µM] (inactive)

Which max activity is listed for CCc1c(C)sc2c1CCN(Cc1nc(-c3ccccc3C)oc1C)C2c1ccccc1 (centres undefined) ?
25.6% [at 5 µM] (inactive)

###

Experiment: inhibitors of Toxoplasma growth in IFN-γ-primed HeLa – cell-based, ME49Luc, luciferase, 72 h, dose response (AID 1259418)
Details: T. gondii ME49Luc in IFN-y HeLa, hits give low values, -100% = high-dose IFN-γ control wells; at 19.5 µM unless noted
The whole screen tested about 3,400 compounds, of which about 840 (25%) were called active. Another 11% or so got no clear call; they are omitted. A selection follows. Measured potencies and affinities stand elsewhere.
ASSAY ENDPOINT: max activity

* Cc1ccc(-c2coc(-c3ccc(NC(=O)Nc4cccc(Br)c4)cc3)n2)cc1 | 22.7% [at 0.16 µM] (inactive)
* Cc1cc(C)c2c(=O)n(Cc3nc(-c4ccccc4)oc3C)c(=O)n(-c3ccccc3)c2n1 | 11.1% [at 0.35 µM] (inactive)
* Cc1cc(C)c2c(=O)n(Cc3nc(-c4ccc(Cl)cc4)oc3C)c(=O)n(-c3ccccc3)c2n1 | -16.5% (inactive)
* Cc1oc(-c2ccccc2)nc1Cn1nnc(-c2nc(-c3ccc4c(c3)OCO4)no2)c1C | 8.48% [at 10 µM] (inactive)
* O=C1CCc2cc(NC(=O)c3cccnc3)ccc2N1 | 9.01% [at 1.35 µM] (inactive)
* COc1cc(OC)cc(C(=O)N2CCC3(CC2)Nc2ccc(C)c(C)c2-n2cccc23)c1 | -13.1% [at 0.35 µM] (inactive)
* NC(=O)C1(N2CCCCC2)CCN(c2ncc(NC(=O)c3ccccc3F)cc2C(=O)O)CC1 | 15.7% [at 2.6 µM] (inactive)
* O=C(Cc1cccs1)N1CCC2(CC1)Nc1cc(F)ccc1-n1cccc12 | 7.4% [at 2.6 µM] (inactive)
* CCOC(=O)CCNC(=O)Nc1ccc(-c2nc(-c3ccccc3)co2)cc1 | -13.1% [at 1.35 µM] (inactive)
* CC(C)(C)c1ccc(CSC2=Nc3ccccc3C3=NC(CCC(=O)NCc4ccco4)C(=O)N23)cc1 (stereo not given) | 15.7% [at 0.16 µM] (inactive)

Which max activity is listed for COc1cccc(CNC(=O)COc2nc(C)nc3ccccc23)c1OC ?
25.6% (inactive)

Which max activity is listed for COc1ccc(-c2noc(-c3nnn(Cc4nc(-c5ccccc5OC)oc4C)c3C)n2)cc1 ?
15.5% [at 5 µM] (inactive)

Which max activity is listed for COc1cc(NC(=O)Nc2ccc(-c3nc(-c4ccccc4)co3)cc2)cc(OC)c1 ?
11.5% [at 0.16 µM] (inactive)

Which max activity is listed for COc1ccccc1-c1nc(C)c(-c2ccc(SCc3ccc(C)cc3)nn2)s1 ?
-14.3% (inactive)

Which max activity is listed for COc1ccccc1NC(=O)N1CCc2nc(-c3ccc(C)cc3)sc2C1 ?
44.9% (inactive)

Which max activity is listed for O=C(c1cnccn1)N1CC(=O)N2[C@H](C1)[C@H](c1ccc(-c3cccc(F)c3)cc1)[C@@H]2CO ?
32.8% (inactive)

Which max activity is listed for CCN1C(=O)CCc2cc(NC(=O)CC(C)C)ccc21 ?
6.42% [at 0.35 µM] (inactive)

Which max activity is listed for Cc1ccccc1-c1nc(CN2CCN(C(=O)Nc3cccc(Cl)c3)CC2)c(C)o1 ?
10.5% [at 5 µM] (inactive)

Which max activity is listed for Cc1nc(-c2ccc(F)cc2)sc1-c1ccc(SCc2ccccn2)nn1 ?
11.9% (inactive)

Which max activity is listed for Cc1cc(C)c2c(=O)n(Cc3nc(-c4ccccc4Cl)oc3C)c(=O)n(-c3ccccc3)c2n1 ?
-23.7% [at 10 µM] (inactive)

###

Experiment: inhibitors of Toxoplasma growth in IFN-γ-primed HeLa – cell-based, ME49Luc, luciferase, 72 h, dose response (AID 1259418)
Conditions: T. gondii ME49Luc in IFN-y HeLa, hits give low values, -100% = high-dose IFN-γ control wells; at 19.5 µM unless noted
Among all 3,400 compounds or so, about 840 (25%) were called active. Not shown: some 11% with an inconclusive outcome. Only a sample is shown. Measured potencies and affinities stand elsewhere.
ASSAY ENDPOINT: max activity

• COC(=O)C1CC23C=CNC4CCC5(c6ccccc6NC15C2C)C43 (centres undefined) = 26.5% [at 10 µM] (inactive)
• CC=Cc1ccc2n(c1=O)C[C@H]1[C@H](CO)[C@@H](C(=O)Nc3ccc(-c4ccccc4)cc3)[C@@H]2N1C(=O)CC (mixture of isomers) = 25.5% (inactive)
• COC(=O)c1cc(Cl)ccc1NC(=O)COc1nc(C)nc2ccccc12 = 15.7% [at 0.16 µM] (inactive)
• CCc1ccc(-c2noc(-c3nnn(Cc4nc(-c5ccc(C)cc5)oc4C)c3C)n2)cc1 = 8.04% [at 0.68 µM] (inactive)
• CCc1ccc2c(c1)cc(S(=O)(=O)c1ccccc1)c(=O)n2CC(=O)NC1CCCCC1 = -12.7% [at 1.35 µM] (inactive)
• COc1ccccc1CNC(=O)CCC1Nc2c3ccccc3nc(=S)n2C1=O (centres undefined) = 15% [at 2.6 µM] (inactive)

Which max activity is listed for COC(=O)c1ccccc1NC(=O)Nc1ccc(-c2nc(-c3ccc(C)cc3C)co2)cc1 ?
13.8% [at 0.16 µM] (inactive)

Which max activity is listed for COc1ccccc1-c1nc(Cn2nnc(-c3nc(-c4ccc(OC(C)C)cc4)no3)c2C)c(C)o1 ?
-5.67% [at 1.35 µM] (inactive)

Which max activity is listed for COc1ccccc1-c1nc(C)c(-c2ccc(SCc3ccccc3)nn2)s1 ?
-5.61% [at 0.68 µM] (inactive)

###

The following compounds are listed with their measured max activity values.
Assay: inhibitors of Toxoplasma growth in IFN-γ-primed HeLa – cell-based, ME49Luc, luciferase, 72 h, dose response (AID 1259418)
Details: T. gondii ME49Luc in IFN-y HeLa, hits give low values, -100% = high-dose IFN-γ control wells; at 19.5 µM unless noted
Hit rate of the full screen: of about 3,400 compounds, about 840 (25%) were called active. Another 11% or so got no clear call; they are omitted. The list is a sample of the results. Measured potencies and affinities stand elsewhere.

- O=C1CNC[C@@H]2[C@H](c3ccc(C#Cc4cccnc4)cc3)[C@H](CO)N12: 36.8% (inactive)
- Nc1ccc(S(=O)(=O)NC(=O)c2ccccc2)cc1: -6.84% [at 5 µM] (inactive)
- COc1cc(OC)cc(C(=O)N2CSC[C@@H]2C(=O)NCCc2csc(-c3ccccc3)n2)c1: 23.7% (inactive)
- CCN(CC)C(=O)C1Cn2ccnc2C2(CCN(CC(C)C)CC2)O1 (stereo not given): 37.9% (inactive)
- COC(=O)c1cccc(NC(=O)Nc2ccc(-c3nc(-c4ccccc4)co3)cc2)c1: 9.82% (inactive)
- N#Cc1ccc(-c2ccc([C@H]3[C@@H](CO)N4C(=O)CNC[C@@H]34)cc2)cc1: 52.5% (inactive)
- COc1ccccc1CNC(=O)CC1N=C2c3ccccc3N=C(SCc3ccccc3F)N2C1=O (stereo not given): 21.2% [at 1.35 µM] (inactive)
- Cc1ccc2c(c1C)-n1cccc1C1(CCN(C(=O)c3cccc(Br)c3)CC1)N2: -13.6% [at 1.35 µM] (inactive)
- COc1ccc(N(Cc2nc(-c3ccccc3)oc2C)S(=O)(=O)c2cccs2)cc1: 14.6% (inactive)

Now, please, on to the next compound.
Which max activity is listed for O=C(Cc1ccccc1Cl)Nc1ccc(-c2nc(-c3ccccc3)co2)cc1 ?
20.3% [at 2.6 µM] (inactive)
